Origin of the recorded values: patent US20240182536A1

test system: T1, mouse IL-18 binding protein (mouse, UniProt Q9Z0M9 29-193)
T1 construct: also called Mouse IL18BP; Mouse IL-18BP
T1 sequence (looked up): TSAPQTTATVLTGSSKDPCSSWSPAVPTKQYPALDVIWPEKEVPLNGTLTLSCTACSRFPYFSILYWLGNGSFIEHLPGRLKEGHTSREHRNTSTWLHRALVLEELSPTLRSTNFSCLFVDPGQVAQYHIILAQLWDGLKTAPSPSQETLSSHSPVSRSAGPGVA
experiment: Octet BLI, monoFc scaffold
Each item that follows carries a reported log10 Kd.
For clarity, the numbers are log10 values of Kd expressed in nM.

Would you mind telling me what log10 Kd value was observed for mouse IL-18 G3V, H6K, K52A on monoFc scaffold (Fc fusion, not shown: small tags and cut ends) NFVRLKSTTAVIRNINDQVLFVDKRQPVFEDMTDIDQSASEPQTRLIIYMYADSEVRGLAVTLSVKDSKMSTLSSKNKIISFEEMDPPENIDDIQSDLIFFQKRVPGHNKMEFESSLYEGHFLACQKEDDAFKLILKKKDENGDKSVMFTLTNLHQSNGGPSVFLFPPKPKDTLMISRTPEVTCVVVDVSHEDPEVKFNWYVDGVEVHNAKTKPREEQYNSTYRVVSVLTVLHQDWLNGKEYKCKVSNKALPAPIEKTISKAKGQPREPQVYTLPPSREEMTKNQVNLTCLVKGFYPSDIAVEWESNGQPENNYKTTPPVLDSDGSFFLNSTLTVDKSRWQQGNVFSCSVMHEALHNHYTQKSLSLS ? 1.15

Would you mind telling me what log10 Kd value was observed for mouse IL-18 G3T, H6K, K52A on monoFc scaffold (Fc fusion, not shown: small tags and cut ends) NFTRLKSTTAVIRNINDQVLFVDKRQPVFEDMTDIDQSASEPQTRLIIYMYADSEVRGLAVTLSVKDSKMSTLSSKNKIISFEEMDPPENIDDIQSDLIFFQKRVPGHNKMEFESSLYEGHFLACQKEDDAFKLILKKKDENGDKSVMFTLTNLHQSNGGPSVFLFPPKPKDTLMISRTPEVTCVVVDVSHEDPEVKFNWYVDGVEVHNAKTKPREEQYNSTYRVVSVLTVLHQDWLNGKEYKCKVSNKALPAPIEKTISKAKGQPREPQVYTLPPSREEMTKNQVNLTCLVKGFYPSDIAVEWESNGQPENNYKTTPPVLDSDGSFFLNSTLTVDKSRWQQGNVFSCSVMHEALHNHYTQKSLSLS ? 1.89

Would you mind telling me what log10 Kd value was observed for mouse IL-18 G3T, K52A on monoFc scaffold (Fc fusion, not shown: small tags and cut ends) NFTRLHSTTAVIRNINDQVLFVDKRQPVFEDMTDIDQSASEPQTRLIIYMYADSEVRGLAVTLSVKDSKMSTLSSKNKIISFEEMDPPENIDDIQSDLIFFQKRVPGHNKMEFESSLYEGHFLACQKEDDAFKLILKKKDENGDKSVMFTLTNLHQSNGGPSVFLFPPKPKDTLMISRTPEVTCVVVDVSHEDPEVKFNWYVDGVEVHNAKTKPREEQYNSTYRVVSVLTVLHQDWLNGKEYKCKVSNKALPAPIEKTISKAKGQPREPQVYTLPPSREEMTKNQVNLTCLVKGFYPSDIAVEWESNGQPENNYKTTPPVLDSDGSFFLNSTLTVDKSRWQQGNVFSCSVMHEALHNHYTQKSLSLS ? 1.04

Would you mind telling me what log10 Kd value was observed for mouse IL-18 G3V/L59M on monoFc scaffold (Fc fusion, not shown: small tags and cut ends) NFVRLHSTTAVIRNINDQVLFVDKRQPVFEDMTDIDQSASEPQTRLIIYMYKDSEVRGMAVTLSVKDSKMSTLSSKNKIISFEEMDPPENIDDIQSDLIFFQKRVPGHNKMEFESSLYEGHFLASQKEDDAFKLILKKKDENGDKSVMFTLTNLHQSNGGPSVFLFPPKPKDTLMISRTPEVTCVVVDVSHEDPEVKFNWYVDGVEVHNAKTKPREEQYNSTYRVVSVLTVLHQDWLNGKEYKCKVSNKALPAPIEKTISKAKGQPREPQVYTLPPSREEMTKNQVNLTCLVKGFYPSDIAVEWESNGQPENNYKTTPPVLDSDGSFFLNSTLTVDKSRWQQGNVFSCSVMHEALHNHYTQKSLSLS ? 0.39

Would you mind telling me what log10 Kd value was observed for mouse IL-18 G3V, K52A on monoFc scaffold (Fc fusion, not shown: small tags and cut ends) NFVRLHSTTAVIRNINDQVLFVDKRQPVFEDMTDIDQSASEPQTRLIIYMYADSEVRGLAVTLSVKDSKMSTLSSKNKIISFEEMDPPENIDDIQSDLIFFQKRVPGHNKMEFESSLYEGHFLACQKEDDAFKLILKKKDENGDKSVMFTLTNLHQSNGGPSVFLFPPKPKDTLMISRTPEVTCVVVDVSHEDPEVKFNWYVDGVEVHNAKTKPREEQYNSTYRVVSVLTVLHQDWLNGKEYKCKVSNKALPAPIEKTISKAKGQPREPQVYTLPPSREEMTKNQVNLTCLVKGFYPSDIAVEWESNGQPENNYKTTPPVLDSDGSFFLNSTLTVDKSRWQQGNVFSCSVMHEALHNHYTQKSLSLS ? 0.30
